B1: CDC25B (parent)
chain: KSPIAPCSLDKRVILIFHCEFSSE

# Variants of: B1
# ASSAY METHOD TEXT: protein stability index of a GFP-peptide fusion (GPS, HEK-293T) (PSI 1-6); higher = more stable;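 further: lentivirally expressed fusions sorted by FACS into six bins by GFP to DsRed ratio, PSI derived from sequencing read proportions per bin multiplied by bin number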
# RUN CONDITIONS: c terminus: a fixed tail appended
MEASUREMENT TYPE: protein stability index
Answers are plain numbers.

F21G | 2.94
I16D | 2.92
I16P | 3.02
I14Q | 1.1
F17A | 1.92

// input: 4 variants below; output: protein stability index for each
1. I4Y
2. E20V
3. S8K
4. F21P

1: 3.53; 2: 2.73; 3: 2.88; 4: 2.66
